FYI, the data here is from the supplement of paper PMC10883282.

test system: SK-LMS-1; assay: relative viability vs DMSO control (72 h) (fraction); higher = more viable cells; settings: 0.00051 µM
READOUT_LABEL: relative viability
Form rule: numeric answer, no unit written next to it.

# count of solved cases: 3
O=S(=O)(c1cccc2c(O)nccc12)N1CCCNCC1 [Hydroxyfasudil]; 1.06
CS(=O)(=O)CCNCc1ccc(-c2ccc3ncnc(Nc4ccc(OCc5cccc(F)c5)c(Cl)c4)c3c2)o1; 1.09
Cc1c2oc3c(C)ccc(C(=O)N[C@@H]4C(=O)N[C@H](C(C)C)C(=O)N5CCC[C@H]5C(=O)N(C)CC(=O)N(C)[C@@H](C(C)C)C(=O)O[C@@H]4C)c3nc-2c(C(=O)N[C@@H]2C(=O)N[C@H](C(C)C)C(=O)N3CCC[C@H]3C(=O)N(C)CC(=O)N(C)[C@@H](C(C)C)C(=O)O[C@@H]2C)c(N)c1=O; 1.02

# context switch: different compound, same relative viability
Param request: relative viability | system SK-LMS-1 | item `CN(C)CCCOc1ccc(-c2ccc3ncc4c(c3c2)n(C2CCOCC2)c(=O)n4C)cn1` 1.01

---

tested on: RD; assay: relative viability vs DMSO control (72 h) (fraction); higher = more viable cells; settings: 0.00457 µM
# note: boundary value 1 maps to 0.0; relative viability below it maps to 1.0

CN(C)C(=O)c1cc2cnc(Nc3ccc(N4CCNCC4)cn3)nc2n1C1CCCC1; 0.0

Input `Cc1c2oc3c(C)ccc(C(=O)N[C@@H]4C(=O)N[C@H](C(C)C)C(=O)N5CCC[C@H]5C(=O)N(C)CC(=O)N(C)[C@@H](C(C)C)C(=O)O[C@@H]4C)c3nc-2c(C(=O)N[C@@H]2C(=O)N[C@H](C(C)C)C(=O)N3CCC[C@H]3C(=O)N(C)CC(=O)N(C)[C@@H](C(C)C)C(=O)O[C@@H]2C)c(N)c1=O` ; condition: relative viability strictly below 1. Does it hold? 1.0

Input `CS(=O)(=O)CCNCc1ccc(-c2ccc3ncnc(Nc4ccc(OCc5cccc(F)c5)c(Cl)c4)c3c2)o1` ; condition: relative viability strictly below 1. Does it hold? 0.0

Input `O=C1CCc2c(Oc3ccc4c(c3)[C@@H]3[C@H](O4)[C@H]3c3nc4cc(C(F)(F)F)ccc4[nH]3)ccnc2N1` ; condition: relative viability strictly below 1. Does it hold? 0.0

Input `CNC(=O)c1c(C)oc2cc(Oc3ncnc4cc(OC)c(OC)cc34)ccc12` ; condition: relative viability strictly below 1. Does it hold? 0.0

Input `CC(=O)c1c(C)c2cnc(Nc3ccc(N4CCNCC4)cn3)nc2n(C2CCCC2)c1=O` ; condition: relative viability strictly below 1. Does it hold? 0.0

---

tested on: SK-ES-1; assay: standardised AUC of viability dose-response curve (72 h) (fraction (0-1)); higher = less growth inhibition (more resistant)
Entries and their measured standardised AUC follow.
Form rule: numeric answer, no unit written next to it.

# count of solved cases: 5
C#Cc1cccc(Nc2ncnc3cc4c(cc23)OCCOCCOCCO4)c1; 0.986
C=CC(=O)N1CCC(CNc2ncnc(N)c2-c2ccc(Oc3ccccc3)cc2)CC1; 0.945
COc1cc2ncnc(Nc3ccc(F)c(Cl)c3)c2cc1OCCCN1CCOCC1; 0.904
CNC(=O)c1cccc2cc(Oc3ccnc4cc(OCC5(N)CC5)c(OC)cc34)ccc12; 0.95
CS(=O)(=O)CCNCc1ccc(-c2ccc3ncnc(Nc4ccc(OCc5cccc(F)c5)c(Cl)c4)c3c2)o1; 0.928

Quick one: give measured standardised AUC for `CCS(=O)(=O)N1CC(CC#N)(n2cc(-c3ncnc4[nH]ccc34)cn2)C1` 1

Quick one: give measured standardised AUC for `Cn1cnc2c(F)c(Nc3ccc(Br)cc3Cl)c(C(=O)NOCCO)cc21` 0.977

Quick one: give measured standardised AUC for `C[C@@H]1CN(C(=O)c2ccc(NC(=O)c3cc(O[C@H](C)c4c(Cl)ccc(F)c4Cl)c(N)nn3)cc2)C[C@H](C)N1` 0.79

Quick one: give measured standardised AUC for `COc1cc(Nc2ncc3c(n2)-c2ccc(Cl)cc2C(c2c(F)cccc2OC)=NC3)ccc1C(=O)O` 0.558

Quick one: give measured standardised AUC for `CC(=O)c1c(C)c2cnc(Nc3ccc(N4CCNCC4)cn3)nc2n(C2CCCC2)c1=O` 0.721

Quick one: give measured standardised AUC for `O=C(c1ccc(F)c(F)c1Nc1ccc(I)cc1F)N1CC(O)([C@@H]2CCCCN2)C1` 0.931
